EXPERIMENTAL PROTOCOL: reversed-phase LC retention time (C18, 15 min MeOH gradient); higher = more hydrophobic / later elution
REPORTED CONDITIONS: ionization mode: ESI+; ion species: [M+H]+
Entries and their reversed-phase LC retention time values follow.
MEASURE: reversed-phase LC retention time (min)

{"MOLECULE": "CCCCOCCOP(=O)(OCCOCCCC)OCCOCCCC [Tri(butoxyethyl)phosphate]", "MEASURE": "reversed-phase LC retention time", "VALUE": 16.7}
{"MOLECULE": "C/C=C1\\N(C)C(C)CC1(c1ccccc1)c1ccccc1 (stereo unspecified)", "MEASURE": "reversed-phase LC retention time", "VALUE": 11.5}
{"MOLECULE": "CC(C)(C)NC(=O)[C@H]1CC[C@H]2[C@@H]3CC[C@H]4NC(=O)C=C[C@]4(C)[C@H]3CC[C@]12C [Finasteride]", "MEASURE": "reversed-phase LC retention time", "VALUE": 14.6}
{"MOLECULE": "C=C1C[C@@H]2[C@H](CC[C@]3(C)C(=O)CC[C@@H]23)[C@@]2(C)C=CC(=O)C=C12", "MEASURE": "reversed-phase LC retention time", "VALUE": 13.9}
{"MOLECULE": "CC(C)(C)c1cc(-n2nc3ccccc3n2)c(O)c(C(C)(C)C)c1", "MEASURE": "reversed-phase LC retention time", "VALUE": 19.7}
{"MOLECULE": "CC(=O)Nc1c(I)c(NC(C)=O)c(I)c(C(=O)O)c1I [Diatrizoate]", "MEASURE": "reversed-phase LC retention time", "VALUE": 4.56}
{"MOLECULE": "CC1(C)CC(N)CC(C)(CN)C1 (stereo unspecified)", "MEASURE": "reversed-phase LC retention time", "VALUE": 1.84}
{"MOLECULE": "O=C1Nc2ccc(Cl)cc2C(C#CC2CC2)(C(F)(F)F)O1 (stereo unspecified)", "MEASURE": "reversed-phase LC retention time", "VALUE": 15.4}
{"MOLECULE": "NC(N)=NC(=O)Cc1c(Cl)cccc1Cl", "MEASURE": "reversed-phase LC retention time", "VALUE": 9.65}
{"MOLECULE": "C[C@]12CCC(=O)C=C1CC[C@@H]1[C@@H]2[C@@H](O)C[C@]2(C=O)[C@@H](C(=O)CO)CC[C@@H]12", "MEASURE": "reversed-phase LC retention time", "VALUE": 16.5}
{"MOLECULE": "O=C(O)CCCCCCCCC(=O)O", "MEASURE": "reversed-phase LC retention time", "VALUE": 17}
{"MOLECULE": "CCOC(=O)NCCOc1ccc(Oc2ccccc2)cc1", "MEASURE": "reversed-phase LC retention time", "VALUE": 15.2}
{"MOLECULE": "COc1ccc2nc(SCc3ncc(C)c(OC)c3C)[nH]c2c1 [Omeprazole sulfide]", "MEASURE": "reversed-phase LC retention time", "VALUE": 11.2}
{"MOLECULE": "O=S(=O)(O)c1ccc2[nH]c(-c3ccccc3)nc2c1", "MEASURE": "reversed-phase LC retention time", "VALUE": 7.17}
{"MOLECULE": "CNCCC(Oc1ccc(C(F)(F)F)cc1)c1ccccc1 (stereo unspecified)", "MEASURE": "reversed-phase LC retention time", "VALUE": 13.4}
{"MOLECULE": "CC(C)(C)Nc1nc(N)nc(Cl)n1", "MEASURE": "reversed-phase LC retention time", "VALUE": 12}
{"MOLECULE": "CCNc1nc(NC(C)C)nc(SC)n1", "MEASURE": "reversed-phase LC retention time", "VALUE": 12.8}
{"MOLECULE": "CCC1=C(C)CN(C(=O)NCCc2ccc(S(=O)(=O)NC(=O)NC3CCC(C)CC3)cc2)C1=O (stereo unspecified) [Glimepiride]", "MEASURE": "reversed-phase LC retention time", "VALUE": 15.3}
{"MOLECULE": "COc1ccc2[nH]cc(CCNC(C)=O)c2c1", "MEASURE": "reversed-phase LC retention time", "VALUE": 9.66}
{"MOLECULE": "CC(C)(Oc1ccc(CCNC(=O)c2ccc(Cl)cc2)cc1)C(=O)O [Bezafibrate]", "MEASURE": "reversed-phase LC retention time", "VALUE": 14}
{"MOLECULE": "COCC(C)N(C(=O)CCl)c1c(C)csc1C (stereo unspecified)", "MEASURE": "reversed-phase LC retention time", "VALUE": 14}
{"MOLECULE": "COc1cccc([C@@]2(O)CCCC[C@@H]2CN(C)C)c1", "MEASURE": "reversed-phase LC retention time", "VALUE": 9.25}
{"MOLECULE": "Cc1cccc(C(=O)O)c1N(Cn1cccn1)C(=O)C(=O)O", "MEASURE": "reversed-phase LC retention time", "VALUE": 8.13}
{"MOLECULE": "Cc1nn(C)c(Oc2ccccc2)c1/C=N/OCc1ccc(C(=O)OC(C)(C)C)cc1 [Fenpyroximate]", "MEASURE": "reversed-phase LC retention time", "VALUE": 17.5}
{"MOLECULE": "CO/N=C(/C1=NOCCO1)c1ccccc1Oc1ncnc(Oc2ccccc2Cl)c1F", "MEASURE": "reversed-phase LC retention time", "VALUE": 14.8}
{"MOLECULE": "Cc1c(Cl)cccc1Nc1ccccc1C(=O)O", "MEASURE": "reversed-phase LC retention time", "VALUE": 16.6}
{"MOLECULE": "C[C@]12CCC(=O)C=C1CC[C@@H]1[C@@H]2CC[C@@]2(C)[C@H]1CC[C@]2(C)O", "MEASURE": "reversed-phase LC retention time", "VALUE": 14.7}
{"MOLECULE": "CCCCCCOC(=O)c1ccccc1C(=O)c1ccc(N(CC)CC)cc1O", "MEASURE": "reversed-phase LC retention time", "VALUE": 17.4}
{"MOLECULE": "CCN(CC)c1ccc2c(C)cc(=O)oc2c1", "MEASURE": "reversed-phase LC retention time", "VALUE": 14.3}
{"MOLECULE": "Cc1c(NC=O)c(=O)n(-c2ccccc2)n1C [N-Formyl-4-aminoantipyrine]", "MEASURE": "reversed-phase LC retention time", "VALUE": 7.74}
{"MOLECULE": "COc1cc(OC)nc(NC(=O)NS(=O)(=O)N(C)S(C)(=O)=O)n1", "MEASURE": "reversed-phase LC retention time", "VALUE": 12.1}
{"MOLECULE": "COCCOCCOCCOCCOC", "MEASURE": "reversed-phase LC retention time", "VALUE": 8.94}
{"MOLECULE": "c1ccc(Nc2cccc3ccccc23)cc1", "MEASURE": "reversed-phase LC retention time", "VALUE": 16.1}
{"MOLECULE": "NC(=O)N1c2ccccc2CC(O)c2ccccc21 (stereo unspecified) [10,11-Dihydro-10-hydroxycarbamazepine]", "MEASURE": "reversed-phase LC retention time", "VALUE": 10.7}
{"MOLECULE": "CCCCN(CCCC)CCCC", "MEASURE": "reversed-phase LC retention time", "VALUE": 10.1}
{"MOLECULE": "CCCOc1nn(C(=O)NS(=O)(=O)c2ccccc2C(=O)OC)c(=O)n1C", "MEASURE": "reversed-phase LC retention time", "VALUE": 11.7}

###

EXPERIMENTAL PROTOCOL: collision cross section (TIMS, N2 drift gas) of the primary ion; higher = larger gas-phase ion size
REPORTED CONDITIONS: ionization mode: ESI+; ion species: [M+H]+
Entries and their collision cross section values follow.

{"COMPOUND": "NC(=O)N1c2ccccc2CC(=O)c2ccccc21 [Oxcarbazepine]", "collision cross section, Å²": 155.46}
{"COMPOUND": "O=C(NCCc1ncc(C(F)(F)F)cc1Cl)c1ccccc1C(F)(F)F", "collision cross section, Å²": 177.5}
{"COMPOUND": "Cc1nc2n(c(=O)c1CCN1CCC(c3noc4cc(F)ccc34)CC1)CCCC2", "collision cross section, Å²": 205.9}
{"COMPOUND": "CO/N=C(/C(=O)O)c1ccccc1CO/N=C(/C(=O)O)c1cccc(C(F)(F)F)c1", "collision cross section, Å²": 194.45}
{"COMPOUND": "CNCCCN1c2ccccc2CCc2ccccc21", "collision cross section, Å²": 164.14}
{"COMPOUND": "CCCCCCCCCCCCNC", "collision cross section, Å²": 167.22}
{"COMPOUND": "CCNC(=O)c1cccc(C)c1 [N-Ethyl-3-methylbenzamide]", "collision cross section, Å²": 135.66}
{"COMPOUND": "CC[C@H]1CCC[C@H](O[C@H]2CC[C@H](N(C)C)[C@@H](C)O2)[C@@H](C)C(=O)C2=C[C@@H]3[C@@H](C=C[C@@H]4C[C@@H](O[C@@H]5O[C@@H](C)[C@H](OC)[C@@H](OC)[C@H]5OC)C[C@@H]34)[C@@H]2CC(=O)O1 [Spinosyn A]", "collision cross section, Å²": 267.49}
{"COMPOUND": "CC1(C)CON(Cc2ccccc2Cl)C1=O", "collision cross section, Å²": 146.86}
{"COMPOUND": "CCC[C@@H]1C[C@@H](C(=O)N[C@@H]([C@H]2O[C@H](SC)[C@H](O)[C@@H](O)[C@H]2O)[C@@H](C)O)N(C)C1", "collision cross section, Å²": 202.11}
{"COMPOUND": "Cc1cc(C)nc(NS(=O)(=O)c2ccc(N)cc2)n1", "collision cross section, Å²": 163.66}
{"COMPOUND": "C[C@]12CCC(=O)C=C1CC[C@@H]1[C@@H]2C(=O)C[C@@]2(C)[C@H]1CC[C@]2(O)C(=O)CO", "collision cross section, Å²": 181.22}
{"COMPOUND": "CN1CCN(C)C1=O", "collision cross section, Å²": 116.95}
{"COMPOUND": "CC(C)(C)C(O)C(Oc1ccc(-c2ccccc2)cc1)n1cncn1 (stereo unspecified)", "collision cross section, Å²": 192.15}
{"COMPOUND": "CC(=O)CCCCn1c(=O)c2c(ncn2C)n(C)c1=O", "collision cross section, Å²": 160.14}
{"COMPOUND": "C[C@]12CCC3=C4CCC(=O)C=C4CC[C@H]3[C@@H]1CC[C@@]2(O)CC#N", "collision cross section, Å²": 175.13}
